Reported Kd, Discoidin domain-containing receptor 2 (Homo sapiens).
Activity calls are given as the source filed them.

molecule | target-desc | Kd
C[C@H]1CNCCCN1S(=O)(=O)c1cccc2cncc(F)c12 | Discoidin domain-containing receptor 2 (Homo sapiens) | > 30 µM (inactive)
C=CC(=O)N1CCC[C@H](n2c(=O)n(-c3ccc(Oc4ccccc4)cc3)c3c(N)ncnc32)C1 | Discoidin domain-containing receptor 2 (Homo sapiens) | > 30 µM (inactive)
NC(=O)c1c(OCc2c(F)cc(Br)cc2F)nsc1NC(=O)NCCCCN1CCCC1 | Discoidin domain-containing receptor 2 (Homo sapiens) | 0.669 µM (active)
Cc1cc(Nc2ncnc3ccc(NC4=NC(C)(C)CO4)cc23)ccc1Oc1ccn2ncnc2c1 | Discoidin domain-containing receptor 2 (Homo sapiens) | > 30 µM (inactive)
Cc1[nH]c(/C=C2\C(=O)Nc3ccccc32)c(C)c1CCC(=O)O [ORANTINIB] | Discoidin domain-containing receptor 2 (Homo sapiens) | > 30 µM (inactive)

---

# target-desc: Ephrin type-B receptor 3 (Homo sapiens, UniProt P54753); also: in the data inactive means no Kd found up to 30 µM
# Sequence (P54753 whole entry): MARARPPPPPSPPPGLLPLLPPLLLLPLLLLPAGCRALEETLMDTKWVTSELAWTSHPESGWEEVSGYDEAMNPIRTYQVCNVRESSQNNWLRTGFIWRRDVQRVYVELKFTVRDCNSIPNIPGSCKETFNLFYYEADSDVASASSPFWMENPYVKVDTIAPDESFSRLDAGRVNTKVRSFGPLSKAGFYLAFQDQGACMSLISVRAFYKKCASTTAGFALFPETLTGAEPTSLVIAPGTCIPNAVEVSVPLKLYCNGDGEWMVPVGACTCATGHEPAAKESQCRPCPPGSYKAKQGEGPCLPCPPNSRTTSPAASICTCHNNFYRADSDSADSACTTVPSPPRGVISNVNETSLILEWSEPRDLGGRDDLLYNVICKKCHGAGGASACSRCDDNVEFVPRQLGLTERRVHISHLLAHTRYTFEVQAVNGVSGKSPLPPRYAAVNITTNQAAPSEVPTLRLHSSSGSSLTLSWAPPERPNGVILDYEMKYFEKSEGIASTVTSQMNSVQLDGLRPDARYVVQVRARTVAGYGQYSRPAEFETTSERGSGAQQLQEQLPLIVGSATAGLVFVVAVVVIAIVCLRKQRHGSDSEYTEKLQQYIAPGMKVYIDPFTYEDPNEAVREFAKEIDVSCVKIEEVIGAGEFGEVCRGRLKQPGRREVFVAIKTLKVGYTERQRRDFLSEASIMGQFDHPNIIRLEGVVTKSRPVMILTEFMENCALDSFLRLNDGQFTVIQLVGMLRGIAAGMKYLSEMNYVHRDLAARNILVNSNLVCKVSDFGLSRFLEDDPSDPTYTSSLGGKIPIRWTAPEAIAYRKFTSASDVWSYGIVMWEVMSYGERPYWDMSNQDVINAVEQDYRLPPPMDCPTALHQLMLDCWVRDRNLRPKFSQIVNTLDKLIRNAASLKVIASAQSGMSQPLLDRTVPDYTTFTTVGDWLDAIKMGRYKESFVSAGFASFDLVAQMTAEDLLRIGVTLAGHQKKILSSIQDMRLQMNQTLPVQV
Activity calls are given as the source filed them.
Kd values for the compounds below.

smiles | target-desc | Kd
CN(C[C@@H]1COCCO1)S(=O)(=O)Nc1ccc2ccc3ncc(-c4cnn(C)c4)cc3c(=O)c2c1 | Ephrin type-B receptor 3 (Homo sapiens, UniProt P54753) | > 30 µM (inactive)
CCNC(=O)C#Cc1ccc2c(c1)NC(=O)/C2=C(\Nc1ccc(CN(C)C)cc1)c1ccccc1 | Ephrin type-B receptor 3 (Homo sapiens, UniProt P54753) | > 30 µM (inactive)
COc1ncc(-c2ccc3nccc(-c4ccnnc4)c3c2)cc1NS(=O)(=O)c1ccc(F)cc1F | Ephrin type-B receptor 3 (Homo sapiens, UniProt P54753) | > 30 µM (inactive)
